Source: patent US9290691B2

ASSAY_NOTES: Solubility Evaluation 1: anthracene compounds in various solvents, visual check
Format: physicochemical
Parameters: key: A: it was confirmed that the compounds were dissolved in the dropped solvents; C: the compounds were not completely dissolved and undissolved residues remained
RUN_PARAMETERS: 30 mg compound, 1 g solvent, visual check
Description: 30 mg of each of anthracene compounds 1 to 14 represented by the following formulae was put into a sample bottle, and 1 g of each of various solvents was dropped into the bottle with agitation. By visual check, a case where it was confirmed that the compounds were dissolved in the dropped solvents is marked as A and a case where the compounds were not completely dissolved and undissolved residues remained is marked as C.
MEASUREMENT_TYPE: Solubility in Dioxane

For c1cc(-c2ccc3ccccc3c2)cc(-c2c3ccccc3c(-c3cccc4ccccc34)c3ccccc23)c1 , what is its reported Solubility in Dioxane?
C

For the compound c1ccc(-c2ccc3cc(-c4cccc(-c5c6ccccc6c(-c6ccc(-c7cccc8ccccc78)cc6)c6ccccc56)c4)ccc3c2)cc1 , what Solubility in Dioxane is on record?
A

Can you share its Solubility in Dioxane? I mean this compound: c1ccc(-c2c3ccccc3c(-c3cccc(-c4cccc(-c5c6ccccc6c(-c6ccccc6)c6ccccc56)c4)c3)c3ccccc23)cc1
C

====

ASSAY_NOTES: Solubility Evaluation 1: anthracene compounds in various solvents, visual check
Assay type: physicochemical
Design: key: A: it was confirmed that the compounds were dissolved in the dropped solvents; C: the compounds were not completely dissolved and undissolved residues remained
RUN_PARAMETERS: 30 mg compound, 1 g solvent, visual check
MEASUREMENT_TYPE: Solubility in Xylene

Below, each entry is followed by its recorded Solubility in Xylene result.
Returns the measured Solubility in Xylene for the input compound. Input: c1ccc2cc(-c3c4ccccc4c(-c4ccc5ccccc5c4)c4ccccc34)ccc2c1 [Compound 11]
C

Request the reported Solubility in Xylene associated with c1ccc(-c2ccc3ccc(-c4c5ccccc5c(-c5cccc(-c6ccc7ccccc7c6)c5)c5ccccc45)cc3c2)cc1 [Compound 5]
C

Data request, read-out Solubility in Xylene, for c1ccc(-c2ccc3cc(-c4cccc(-c5c6ccccc6c(-c6ccc(-c7cccc8ccccc78)cc6)c6ccccc56)c4)ccc3c2)cc1 [Compound 3]
A

Could you tell me which Solubility in Xylene is on file for c1cc(-c2ccc3ccccc3c2)cc(-c2c3ccccc3c(-c3ccc4cc(-c5ccc6ccccc6c5)ccc4c3)c3ccccc23)c1 [Compound 4] ?
C

Recorded Solubility in Xylene for c1cc(-c2ccc3ccccc3c2)cc(-c2c3ccccc3c(-c3cccc4ccccc34)c3ccccc23)c1 [Compound 6] , please?
C

Turning now to a further compound:
Name the reported Solubility in Xylene value associated with the compound c1ccc(-c2ccc(-c3ccccc3-c3c4ccccc4c(-c4c5ccccc5c(-c5ccccc5-c5ccc(-c6ccccc6)cc5)c5ccccc45)c4ccccc34)cc2)cc1 [Compound 14]
C

====

ASSAY_NOTES: Solubility Evaluation 1: anthracene compounds in various solvents, visual check
Format: physicochemical
Parameters: key: A: it was confirmed that the compounds were dissolved in the dropped solvents; C: the compounds were not completely dissolved and undissolved residues remained
RUN_PARAMETERS: 30 mg compound, 1 g solvent, visual check
MEASUREMENT_TYPE: Solubility in N-methylpyrolidone

Previously resolved entries follow.
Requested field: Solubility in N-methylpyrolidone. Item: c1ccc(-c2ccc(-c3c4ccccc4c(-c4ccc(-c5ccccc5)cc4)c4ccccc34)cc2)cc1
C

Recorded Solubility in N-methylpyrolidone of c1ccc(-c2ccc(-c3ccccc3-c3c4ccccc4c(-c4c5ccccc5c(-c5ccccc5-c5ccc(-c6ccccc6)cc5)c5ccccc45)c4ccccc34)cc2)cc1 , please.
A

Look at this compound and give its reported Solubility in N-methylpyrolidone. c1ccc(-c2ccc3cc(-c4cccc(-c5c6ccccc6c(-c6ccc(-c7cccc8ccccc78)cc6)c6ccccc56)c4)ccc3c2)cc1
A

Recorded Solubility in N-methylpyrolidone for c1cc(-c2ccc3ccccc3c2)cc(-c2c3ccccc3c(-c3ccc4cc(-c5ccc6ccccc6c5)ccc4c3)c3ccccc23)c1 , please?
A

// lookup Solubility in N-methylpyrolidone for c1ccc(-c2ccc3cc(-c4cccc(-c5c6ccccc6c(-c6ccc7ccccc7c6)c6ccccc56)c4)ccc3c2)cc1
A

---
Which value of Solubility in N-methylpyrolidone has been reported for c1cc(-c2ccc3ccccc3c2)cc(-c2c3ccccc3c(-c3ccc4ccccc4c3)c3ccccc23)c1 in the records?
A

Tell me the measured Solubility in N-methylpyrolidone of c1ccc2cc(-c3ccc(-c4ccc(-c5c6ccccc6c(-c6ccc7ccccc7c6)c6ccccc56)cc4)c4ccccc34)ccc2c1 , please.
A

Form field: reported Solubility in N-methylpyrolidone of c1ccc(-c2cc(-c3ccc4ccccc4c3)cc(-c3c4ccccc4c(-c4ccc5ccccc5c4)c4ccccc34)c2)cc1
A

What Solubility in N-methylpyrolidone value was documented for this compound, c1ccc(-c2c3ccccc3c(-c3cccc(-c4cccc(-c5c6ccccc6c(-c6ccccc6)c6ccccc56)c4)c3)c3ccccc23)cc1 ?
C

Data request, read-out Solubility in N-methylpyrolidone, for c1ccc2cc(-c3c4ccccc4c(-c4ccc(-c5cccc6ccccc56)cc4)c4ccccc34)ccc2c1
A

Reported Solubility in N-methylpyrolidone for c1cc(-c2ccc3ccccc3c2)cc(-c2c3ccccc3c(-c3cccc4ccccc34)c3ccccc23)c1 : what is it?
A

For the compound shown here, c1ccc2cc(-c3c4ccccc4c(-c4ccc5ccccc5c4)c4ccccc34)ccc2c1 , give the reported Solubility in N-methylpyrolidone.
C

I would be grateful if you could share the reported Solubility in N-methylpyrolidone for c1ccc(-c2ccc3ccc(-c4c5ccccc5c(-c5cccc(-c6ccc7ccccc7c6)c5)c5ccccc45)cc3c2)cc1 .
A

Reported Solubility in N-methylpyrolidone, compound c1ccc2cc(-c3ccc(-c4c5ccccc5c(-c5ccc(-c6cccc7ccccc67)cc5)c5ccccc45)cc3)ccc2c1 : ____
A

====

ASSAY_NOTES: Solubility Evaluation 1: anthracene compounds in various solvents, visual check
Type: physicochemical
Parameters: key: A: it was confirmed that the compounds were dissolved in the dropped solvents; C: the compounds were not completely dissolved and undissolved residues remained
RUN_PARAMETERS: 30 mg compound, 1 g solvent, visual check
Protocol: 30 mg of each of anthracene compounds 1 to 14 represented by the following formulae was put into a sample bottle, and 1 g of each of various solvents was dropped into the bottle with agitation. By visual check, a case where it was confirmed that the compounds were dissolved in the dropped solvents is marked as A and a case where the compounds were not completely dissolved and undissolved residues remained is marked as C.
MEASUREMENT_TYPE: Solubility in Cyclohexanone

Here's what some known entries look like.
I am curious: what Solubility in Cyclohexanone value has been reported for c1ccc2cc(-c3c4ccccc4c(-c4ccc5ccccc5c4)c4ccccc34)ccc2c1 ?
C

Tell me the measured Solubility in Cyclohexanone of c1ccc(-c2ccc3cc(-c4cccc(-c5c6ccccc6c(-c6ccc7ccccc7c6)c6ccccc56)c4)ccc3c2)cc1 , please.
A

Solubility in Cyclohexanone for c1cc(-c2ccc3ccccc3c2)cc(-c2c3ccccc3c(-c3cccc4ccccc34)c3ccccc23)c1 ?
A

I am curious: what Solubility in Cyclohexanone value has been reported for c1ccc(-c2ccc3cc(-c4cccc(-c5c6ccccc6c(-c6ccc(-c7cccc8ccccc78)cc6)c6ccccc56)c4)ccc3c2)cc1 ?
A

Item c1ccc(-c2ccc(-c3ccccc3-c3c4ccccc4c(-c4c5ccccc5c(-c5ccccc5-c5ccc(-c6ccccc6)cc5)c5ccccc45)c4ccccc34)cc2)cc1 has what recorded Solubility in Cyclohexanone?
A

***
Give its Solubility in Cyclohexanone value. Item: c1ccc2cc(-c3ccc(-c4ccc(-c5c6ccccc6c(-c6ccc7ccccc7c6)c6ccccc56)cc4)c4ccccc34)ccc2c1
A

Sample c1ccc2cc(-c3ccc(-c4c5ccccc5c(-c5ccc(-c6cccc7ccccc67)cc5)c5ccccc45)cc3)ccc2c1 — what was its Solubility in Cyclohexanone?
A

Given c1ccc(-c2cc(-c3ccc4ccccc4c3)cc(-c3c4ccccc4c(-c4ccc5ccccc5c4)c4ccccc34)c2)cc1 , state its recorded Solubility in Cyclohexanone.
A

Please report the recorded Solubility in Cyclohexanone for c1ccc(-c2c3ccccc3c(-c3cccc(-c4cccc(-c5c6ccccc6c(-c6ccccc6)c6ccccc56)c4)c3)c3ccccc23)cc1 .
C

Report Solubility in Cyclohexanone for c1cc(-c2ccc3ccccc3c2)cc(-c2c3ccccc3c(-c3ccc4cc(-c5ccc6ccccc6c5)ccc4c3)c3ccccc23)c1 please.
A

Quick one: Solubility in Cyclohexanone of c1ccc2cc(-c3c4ccccc4c(-c4ccc(-c5cccc6ccccc56)cc4)c4ccccc34)ccc2c1 ?
A

====

ASSAY_NOTES: Solubility Evaluation 1: anthracene compounds in various solvents, visual check
Type: physicochemical
Parameters: key: A: it was confirmed that the compounds were dissolved in the dropped solvents; C: the compounds were not completely dissolved and undissolved residues remained
RUN_PARAMETERS: 30 mg compound, 1 g solvent, visual check
MEASUREMENT_TYPE: Solubility in Toluene

Reference set, count: 5
Item under review: c1ccc(-c2ccc3cc(-c4cccc(-c5c6ccccc6c(-c6ccc7ccccc7c6)c6ccccc56)c4)ccc3c2)cc1 . Reported Solubility in Toluene?
C

# query: Solubility in Toluene of entry c1cc(-c2ccc3ccccc3c2)cc(-c2c3ccccc3c(-c3cccc4ccccc34)c3ccccc23)c1
C

For the compound c1cc(-c2ccc3ccccc3c2)cc(-c2c3ccccc3c(-c3ccc4cc(-c5ccc6ccccc6c5)ccc4c3)c3ccccc23)c1 , what Solubility in Toluene is on record?
C

Form field: reported Solubility in Toluene of c1ccc2cc(-c3ccc(-c4c5ccccc5c(-c5ccc(-c6cccc7ccccc67)cc5)c5ccccc45)cc3)ccc2c1
A

Consider the compound c1cc(-c2ccc3ccccc3c2)cc(-c2c3ccccc3c(-c3ccc4ccccc4c3)c3ccccc23)c1 and give its measured Solubility in Toluene.
A

Next:
Entry under review: c1ccc2cc(-c3ccc(-c4ccc(-c5c6ccccc6c(-c6ccc7ccccc7c6)c6ccccc56)cc4)c4ccccc34)ccc2c1 . Reported Solubility in Toluene?
C

// query Solubility in Toluene value for entry c1ccc(-c2ccc3ccc(-c4c5ccccc5c(-c5cccc(-c6ccc7ccccc7c6)c5)c5ccccc45)cc3c2)cc1
C

Which value of Solubility in Toluene has been reported for c1ccc(-c2ccc3cc(-c4cccc(-c5c6ccccc6c(-c6ccc(-c7cccc8ccccc78)cc6)c6ccccc56)c4)ccc3c2)cc1 in the records?
A

Would you kindly share the measured Solubility in Toluene for c1ccc(-c2ccc(-c3ccccc3-c3c4ccccc4c(-c4c5ccccc5c(-c5ccccc5-c5ccc(-c6ccccc6)cc5)c5ccccc45)c4ccccc34)cc2)cc1 ?
A

State the recorded Solubility in Toluene for this entry: c1ccc(-c2cc(-c3ccc4ccccc4c3)cc(-c3c4ccccc4c(-c4ccc5ccccc5c4)c4ccccc34)c2)cc1
A

Report Solubility in Toluene for c1ccc(-c2ccc(-c3c4ccccc4c(-c4ccc(-c5ccccc5)cc4)c4ccccc34)cc2)cc1 please.
C

Look up Solubility in Toluene for this compound: c1ccc(-c2c3ccccc3c(-c3cccc(-c4cccc(-c5c6ccccc6c(-c6ccccc6)c6ccccc56)c4)c3)c3ccccc23)cc1
C

Form field: reported Solubility in Toluene of c1ccc2cc(-c3c4ccccc4c(-c4ccc5ccccc5c4)c4ccccc34)ccc2c1
C

Need Solubility in Toluene, item c1ccc2cc(-c3c4ccccc4c(-c4ccc(-c5cccc6ccccc56)cc4)c4ccccc34)ccc2c1
A
